Catalogue of IC50 readings, one per entry.
target under test: α4β1 (Jurkat lymphocytes-VCAM-1) (Homo sapiens, UniProt P05556+P13612)
Construct: host or cells: Jurkat (untreated or TNFα-treated)
Sequence (P13612 34-1032): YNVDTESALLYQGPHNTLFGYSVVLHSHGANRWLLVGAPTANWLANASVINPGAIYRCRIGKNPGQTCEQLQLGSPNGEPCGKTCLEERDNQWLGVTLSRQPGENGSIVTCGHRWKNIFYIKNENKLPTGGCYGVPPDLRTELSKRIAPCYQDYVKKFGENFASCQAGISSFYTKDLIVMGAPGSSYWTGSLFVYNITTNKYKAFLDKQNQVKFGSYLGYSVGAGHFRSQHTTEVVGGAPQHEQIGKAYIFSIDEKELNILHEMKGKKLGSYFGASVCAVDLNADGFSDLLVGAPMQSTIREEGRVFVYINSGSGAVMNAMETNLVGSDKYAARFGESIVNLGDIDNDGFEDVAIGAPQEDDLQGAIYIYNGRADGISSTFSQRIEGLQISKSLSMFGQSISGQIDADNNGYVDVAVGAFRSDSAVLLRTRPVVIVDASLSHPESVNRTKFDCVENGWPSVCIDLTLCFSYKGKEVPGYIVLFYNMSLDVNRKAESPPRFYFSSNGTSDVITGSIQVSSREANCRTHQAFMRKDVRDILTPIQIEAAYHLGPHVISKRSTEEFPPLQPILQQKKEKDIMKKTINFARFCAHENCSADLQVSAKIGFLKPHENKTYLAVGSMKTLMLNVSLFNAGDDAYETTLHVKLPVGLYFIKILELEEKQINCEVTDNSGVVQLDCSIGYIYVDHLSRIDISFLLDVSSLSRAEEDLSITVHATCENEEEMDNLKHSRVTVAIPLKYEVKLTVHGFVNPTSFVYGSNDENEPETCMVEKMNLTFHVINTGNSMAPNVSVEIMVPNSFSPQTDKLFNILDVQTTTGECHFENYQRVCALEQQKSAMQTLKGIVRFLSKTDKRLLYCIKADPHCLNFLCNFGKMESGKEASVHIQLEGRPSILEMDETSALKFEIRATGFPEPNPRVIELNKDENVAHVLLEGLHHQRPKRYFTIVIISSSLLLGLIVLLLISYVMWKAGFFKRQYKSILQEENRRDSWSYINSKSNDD
Sequence (P05556 21-798): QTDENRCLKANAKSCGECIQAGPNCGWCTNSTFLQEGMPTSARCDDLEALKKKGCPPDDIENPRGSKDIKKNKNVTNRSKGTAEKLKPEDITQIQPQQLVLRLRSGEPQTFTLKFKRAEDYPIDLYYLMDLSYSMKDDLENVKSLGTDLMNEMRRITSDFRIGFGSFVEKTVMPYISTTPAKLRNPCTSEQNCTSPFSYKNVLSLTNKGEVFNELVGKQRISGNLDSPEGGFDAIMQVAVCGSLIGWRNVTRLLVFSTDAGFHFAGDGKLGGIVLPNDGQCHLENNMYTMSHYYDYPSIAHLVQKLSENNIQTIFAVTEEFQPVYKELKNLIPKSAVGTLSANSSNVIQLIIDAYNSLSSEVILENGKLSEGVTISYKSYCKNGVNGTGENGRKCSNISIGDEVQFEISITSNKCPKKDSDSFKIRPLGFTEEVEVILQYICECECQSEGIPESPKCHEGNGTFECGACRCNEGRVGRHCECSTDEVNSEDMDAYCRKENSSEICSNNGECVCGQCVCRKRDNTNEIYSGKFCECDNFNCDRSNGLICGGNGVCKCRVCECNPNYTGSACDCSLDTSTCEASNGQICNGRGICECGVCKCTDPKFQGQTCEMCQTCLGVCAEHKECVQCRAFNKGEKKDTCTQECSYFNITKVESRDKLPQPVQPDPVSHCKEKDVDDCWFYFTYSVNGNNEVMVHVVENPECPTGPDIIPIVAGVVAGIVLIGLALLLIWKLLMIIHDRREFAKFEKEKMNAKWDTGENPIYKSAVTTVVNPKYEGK
assay comment: Adhesion of Jurkat lymphocytes to immobilized VCAM-1
Type: cell-based
condition set: Jurkat cells, VCAM-1; n=6; Table S6; read-out: IC50 α4β1 (linear peptides)
Peptide text beside a SMILES is read from it.
recorded metric: IC50 (µM)

molecule	recorded metric	value
CSCC[C@H](NC(=O)[C@@H](NC(=O)CNC(=O)[C@@H](N)CCCCN)[C@@H](C)O)C(=O)N[C@@H](CC(C)C)C(=O)N[C@@H](CC(=O)O)C(=O)NCC(=O)N[C@@H](CC(C)C)C(N)=O [sequence 6, KG39TMLDG44L] (H-KGTMLDGL-NH2; N-terminus and C-terminus assumed)	IC50	1550
CSCC[C@H](NC(=O)[C@@H](NC(=O)[C@H](CCCNC(=N)N)NC(=O)[C@@H](N)CCCCN)[C@@H](C)O)C(=O)N[C@@H](CC(C)C)C(=O)N[C@@H](CC(=O)O)C(=O)NCC(=O)N[C@@H](CC(C)C)C(N)=O [sequence 5, KRTMLDGL] (H-KRTMLDGL-NH2; N-terminus and C-terminus assumed)	IC50	1310
CSCC[C@H](NC(=O)[C@H](C)NC(=O)[C@H](CCCNC(=N)N)NC(=O)[C@H](CCCCN)NC(=O)[C@@H](N)CS)C(=O)N[C@@H](CC(C)C)C(=O)N[C@@H](CC(=O)O)C(=O)NCC(=O)N[C@@H](CC(C)C)C(=O)N[C@@H](CC(N)=O)C(=O)N[C@@H](CC(=O)O)C(=O)N[C@@H](Cc1ccc(O)cc1)C(=O)N[C@@H](CS)C(N)=O [sequence 4, CKRAMLDGLNDYC] (H-CKRAMLDGLNDYC-NH2; N-terminus and C-terminus assumed)	IC50	3910
CSCC[C@H](NC(=O)[C@@H](NC(=O)[C@H](CCCNC(=N)N)NC(=O)[C@H](CCCCN)NC(=O)[C@@H](N)CS)[C@@H](C)O)C(=O)N[C@@H](CC(C)C)C(=O)N[C@@H](CC(=O)O)C(=O)NCC(=O)N[C@@H](CC(C)C)C(=O)N[C@@H](CC(N)=O)C(=O)N[C@@H](CC(=O)O)C(=O)N[C@@H](Cc1ccc(O)cc1)C(=O)N[C@@H](CS)C(N)=O [sequence 3, CKRTMLDGLNDYC] (H-CKRTMLDGLNDYC-NH2; N-terminus and C-terminus assumed)	IC50	1450

* * *

target under test: α4β1 (Jurkat lymphocytes-VCAM-1) (Homo sapiens, UniProt P05556+P13612)
Construct: host or cells: Jurkat (untreated or TNFα-treated)
assay comment: Adhesion of Jurkat lymphocytes to immobilized VCAM-1
Assay type: cell-based
condition set: untreated Jurkat lymphocytes (α4β1); read-out: IC50 Jurkat lymphocytes-VACAM-1 control
Numbered stars: 1 amine (or outer) side, 2 acyl side, 3 side chain; on linkers, the order of the positions; unused ones are H or OH. Bridge positions count the residues as written; N and C are the ends. Square brackets hold non-standard residues; d marks the D form. Peptide text beside a SMILES is read from it. N(6-aminohexyl)Gly = O=C(CN(CCCCCCN[*:3])[*:1])[*:2]; N(2-Aminoethyl)Gly = O=C(CN(CCN[*:3])[*:1])[*:2]; CO = O=C([*:1])[*:2]; Nlys = NCCCCNCC(=O)O
Catalogue of IC50 readings, one per entry.

compound	reading unit	relational operator	IC50
CSCC[C@@H]1NC(=O)[C@H]([C@@H](C)O)NC(=O)CN(C(=O)[C@@H](N)CCCNC(=N)N)CCCCNC(=O)NCCCCN(CC(=O)N[C@@H](CC(C)C)C(N)=O)C(=O)[C@H](CC(=O)O)NC(=O)[C@H](CC(C)C)NC1=O [Arg-visabron c (4–4)] (H-R[Nlys]TMLD[Nlys]L-NH2; linker 2-7 via CO; N-terminus assumed)	µM	>	5000
CSCC[C@@H]1NC(=O)[C@H]([C@@H](C)O)NC(=O)CN(C(=O)[C@@H](N)CCCCN)CCCCNC(=O)NCCCCN(CC(=O)N[C@@H](CC(C)C)C(N)=O)C(=O)[C@H](CC(=O)O)NC(=O)[C@H](CC(C)C)NC1=O [visabron c (4–4)] (H-K[Nlys]TMLD[Nlys]L-NH2; linker 2-7 via CO)	µM	=	5
CSCC[C@@H]1NC(=O)[C@H]([C@@H](C)O)NC(=O)CN(C(=O)[C@@H](N)CCCCN)CCCCCCNC(=O)NCCCCCCN(CC(=O)N[C@@H](CC(C)C)C(N)=O)C(=O)[C@H](CC(=O)O)NC(=O)[C@H](CC(C)C)NC1=O [visabron c (6–6)] (H-K[N(6-aminohexyl)Gly]TMLD[N(6-aminohexyl)Gly]L-NH2; linker 2-7 via CO)	µM	=	5
CSCC[C@@H]1NC(=O)[C@H]([C@@H](C)O)NC(=O)CN(C(=O)[C@@H](N)CCCCN)CCNC(=O)NCCN(CC(=O)N[C@@H](CC(C)C)C(N)=O)C(=O)[C@H](CC(=O)O)NC(=O)[C@H](CC(C)C)NC1=O [visabron c (2–2)] (H-K[N(2-Aminoethyl)Gly]TMLD[N(2-Aminoethyl)Gly]L-NH2; linker 2-7 via CO)	µM	=	7
